Reference for the values: the supplement of paper PMC9170038

system: MS2 coat protein; assay: apparent KD of MS2 coat protein; designed switch direction (-1 OFF switch, 1 ON switch): -1; higher = weaker reporter binding; conditions: input ligand: FMN 200 uM
Please go through the items and note down their apparent KD of MS2 coat protein.
Numbers only, in nM.

Record excerpt, results attached:
SEQUENCE_DATA: GACUGACAUGAGGAUCACCCAUGUAAGGAUAUAGGGAGCGUCGCUCCGCAACCCGCGCCUAGAAGGUACAAGGU [EX1 C.20] (Eterna round: R97, puzzle: Exclusion 1)
EXPERIMENTAL_ENDPOINT: apparent KD of MS2 coat protein
VALUE: 18.2
//
SEQUENCE_DATA: CUUUUGUGAGGAUAUUAGUAGUAUAUAAUUGGUGAUAUUGCUGAGAAGGCACAUGAGGAUCACCCAUGUACAAC [JR_Ex4_Sub034] (Eterna round: R97, puzzle: Exclusion 4)
EXPERIMENTAL_ENDPOINT: apparent KD of MS2 coat protein
VALUE: 369
//
SEQUENCE_DATA: CGGACACCAGUAGGAUAUGUAGGAUAUGUUGUUGAGGAUCACCCAACAAAUUAAACGACAGAAGGACAGAAGGACUGUUCUCCU [pwkr exNG2 2xFMN 1xF5.2] (Eterna round: R96, puzzle: Exclusion NG 2)
EXPERIMENTAL_ENDPOINT: apparent KD of MS2 coat protein
VALUE: 18.6
//
SEQUENCE_DATA: CACCGUUACUGAGGAUAUCCUACAUGAGGAUCACCCAUGUAAUAAAUGAGAAUUUCGGAUGUAUUGGAGAAGGCAGAAAUCGGC [Ostricism 62 - Jieux - Exclusion NG 2] (Eterna round: R96, puzzle: Exclusion NG 2)
EXPERIMENTAL_ENDPOINT: apparent KD of MS2 coat protein
VALUE: 52.7
//
SEQUENCE_DATA: GAUCAUGCAGGAUAUACAUGGACCAUGAAAACAUGGAUUUCACAUGAGGAUCACCCAUGUAGAAGGGCAUGAUC [Omei Ex2 A9] (Eterna round: R97, puzzle: Exclusion 2)
EXPERIMENTAL_ENDPOINT: apparent KD of MS2 coat protein
VALUE: 82.1
//
SEQUENCE_DATA: CCAUGAUAAGGAUAUUGAAGGUUCGACAUGAGGAUCACCCAUGUUAUGUUGGAAAAGGGACAAGAAGGUAUGAAUU [salish99_ex5_r4_220] (Eterna round: R97, puzzle: Exclusion 5)
EXPERIMENTAL_ENDPOINT: apparent KD of MS2 coat protein
VALUE: 34.7
//
SEQUENCE_DATA: AAUUUGCAAGCGAGAUCCCACAUGAGGAUCACCCAUGUGCUCGUCUUAUAAGGUACUGUGACAAAAGUCACGGUACC [Mat - Sensor, turn-off var - Eli Mod - D95] (Eterna round: R97, puzzle: Sensor, turn-off variant 1)
EXPERIMENTAL_ENDPOINT: apparent KD of MS2 coat protein
VALUE: 16.6
//
SEQUENCE_DATA: AUACAGGAUGUCAGGAUAUGUUGUAGGUUCCGACGACAGAAGGGACAUGAGGAUCACCCAUGUAGGCCUUUGCU [BmEX4 C.7] (Eterna round: R97, puzzle: Brourd's mod of Exclusion 4)
EXPERIMENTAL_ENDPOINT: apparent KD of MS2 coat protein
VALUE: 31.4

Which measured apparent KD of MS2 coat protein value corresponds to GAUUGAGCUGUUAGGAUAUCCGCAGGCCGCCUGGAGGAGAAGGAACAUGAGGAUCACCCAUGUGCACGGGAGGC [Xemaesti] (Eterna round: R97, puzzle: Brourd's mod of Exclusion 4) ?
13.4

====

test system: MS2 coat protein; assay: apparent KD of MS2 coat protein, switch OFF state (with FMN for OFF switches, without FMN for ON switches); designed switch direction (-1 OFF switch, 1 ON switch): 1; higher = weaker reporter binding; details: FMN input: 0 or 200 uM; Eterna round: R93 (includes R88 designs)
Please go through the items and note down their apparent KD of MS2 coat protein.
Answers are plain numbers, in nM.

Quick one: give me apparent KD of MS2 coat protein for each item below, same order please.
1. AUACUGGAGGACAAGGAUAUGUGCUCCACGACAUGAGGAUCACCCAUGUGCGACGUGGUAGUGAAACAGAAGGUGUCCUAUUGUA [Edonisve]
2. AAUAUACAUGAGGAUCACCCAUGUAUUAAUAGCUGAGGAUAUACGGGUGAAAAUAGCAUAGUAGAAGGCGGGUGUA [SameState1 Malc#10]
3. GAAAUAAAAAGACAGGAUAUCCAAAAGAAAACAUGAGGAUCACCCAUGUAAAGAAAAUAAAAAUGGGAGAAGGGUCAAAUAAAAG [Mat - Same State 2 - JL mod - D54]

1. 17.7
2. 144
3. 32.8

====

Please go through the items and note down their apparent KD of MS2 coat protein.
tested on: MS2 coat protein; assay: apparent KD of MS2 coat protein; higher = weaker reporter binding; conditions: Eterna round: R101; input ligand: none
One number for each entry, in nM.

Quick one: give me apparent KD of MS2 coat protein for each item below, same order please.
1. GUGAGGCAUCUACACGCUCGGGCCGAGGAUAUACAUGAGGAUCACCCAUGUAACAGUGCGGUCAUGUAGAAGGCGGCUAAAUUA [Rianrare] (puzzle (switch architecture): Small Loop Exclusion NG 3)
2. GGAGAUACAUGAGGAUCACCCAUGUAGGAUAUCGGGCCCAUAUACGGCGAAAGCCGUAUAUGGGCCGAGAAGGGCGUACACACC [#LOL-7] (puzzle (switch architecture): Small Loop Exclusion NG 3)
3. GGCAGCCUUCAGAAGGGAGUGCGAUAAUCGCACUCAGGAUAUGAGGAUCACCCAUAUCAAGCUGCCACUGAGGCAAAGCCUCAG [#SharedSequence - IEx NG 2-1] (puzzle (switch architecture): Inverted Exclusion NG 1)
4. GGAGAUACAUGAGGAUCACCCAUGUAGGAUAUAUAGUAUAUAUAUAUCGAAAGAUAUAUAUAUAUAUAGAAGGGCGUGCACACC [#LOL-16] (puzzle (switch architecture): Small Loop Exclusion NG 3)
5. CAACUGGCACAGAAGGGUGACAUGAGGAUCACCCAUGUAGCGUGGCACUCAGGAGGAGCCACGCCACAGGAUAUGUGCCGACAC [Beisreriar] (puzzle (switch architecture): Inverted Same State NG 2)

11.1
8.78
10.8
8.34
29.9

====

test system: MS2 coat protein; assay: apparent KD of MS2 coat protein; designed switch direction (-1 OFF switch, 1 ON switch): -1; higher = weaker reporter binding; conditions: input ligand: none
Mark criterion met for reported apparent KD of MS2 coat protein of 80 nM or greater; mark criterion not met for anything smaller.

Illustrative cases are given below, each with its answer.
SEQUENCE_DATA: GACUAGUGAGGAUAUAUUUGCAGUGUACCUCGGGUGAUCGCACUUGAGGAUCACCCAAGUAGAAGGCGCGAGGG [EX2 #25] (Eterna round: R97, puzzle: Exclusion 2)
LABEL_VALUE: criterion met

SEQUENCE_DATA: UGCAUGUCAGGAUAUAUUAGUACACUAGUCAGUCUAGGUGCGUAGAAGGGACAUGAGGAUCACCCAUGUGACAU [Eternabot (L2) Solution 1] (Eterna round: R97, puzzle: Exclusion 4)
LABEL_VALUE: criterion not met

Decide: apparent KD of MS2 coat protein of CUCCGACAUGAGGAUCACCCAUGUUAGGAUAUCCCACGCAGGUAGUGAGAGAAUCUGUGGAGAAGGAGCAGGGU [Eternabot (L2) Solution 74] (Eterna round: R97, puzzle: Exclusion 1) >= 80 nM?
criterion not met

Follow-up item: UCAUAUAACGAGGAUAUGCGGGCCGUUUUCCCAGCAGAAGGCGUUACAUGAGGAUCACCCAUGUACCCGGGUAA [EX6 A.29] (Eterna round: R97, puzzle: Exclusion 6)
criterion met

====

Please go through the items and note down their apparent KD of MS2 coat protein.
system: MS2 coat protein; assay: apparent KD of MS2 coat protein; higher = weaker reporter binding; conditions: Eterna round: R107; input ligand: arginine 13.2 mM
Give bare numbers, in nM.

Record excerpt, results attached:
SEQUENCE_DATA: UUACACAUGAGGAUCACCCAUGUCUGGGAGCGAGGACCGGUACGGCCGCCACUCGAAUUGUCAGGGCUAUGCCGGACGAUGCAUC [theeternabot_sameState_MS2_Trp_A_20]
UNIT_SPEC: nM
apparent KD of MS2 coat protein: 20.6
--
SEQUENCE_DATA: GGUUACUCUACGGCCGCCACUGGGCAUGUAAAUAACAUGAGGAUCACCCAUGUGGAUUAAUAUUACAGGACCGGGUAGUGUAACC [Tryptophan B 23]
UNIT_SPEC: nM
apparent KD of MS2 coat protein: 126
--
SEQUENCE_DATA: GGGCCCGGGCGCGAGCCCGGGCCCAUUGAUACCAGUGAAGAAGAGCGCCCUUGGCAGCGAAUCCUAACAUGAGGAUCACCCAUGU [5.P]
UNIT_SPEC: nM
apparent KD of MS2 coat protein: 63.2
--
SEQUENCE_DATA: UCGGGCAGAGCGGCCGCCACUGUUUGGCGUGCGGAUGACGGAACAUGAGGAUCACCCAUGUUGAUUAGGACCGGGCUUGCGGAGA [qpqullin]
UNIT_SPEC: nM
apparent KD of MS2 coat protein: 11.3
--
SEQUENCE_DATA: AAACGCCACGGAAGGAGCGACAUGAGGAUCACCCAUGUAGAAGUGGCGGAUGCACCCUCCUGUCAGGUAGGUCGCCGUGCGCCAA [XArg-B24]
UNIT_SPEC: nM
apparent KD of MS2 coat protein: 17.1

Quick one: give me apparent KD of MS2 coat protein for each item below, same order please.
1. GGACUAACCAGAAGGAGCGGCACAAAGCAGAAACUGCAUCCUCCGCACGAGGAUCACCCGUGUCAGGUAGGUCGCUGGUUAGUCG [ArgBX 28]
2. AGAUUCGACACGGCCGCCACUCGUGGUGGAUUACCUAGUGUCGAACAUGAGGAUCACCCAUGUACGAGGACCGGGUGUUGAGUCU [XTryp B #18]
3. GUAUCUAUGUGAAAUAGAUAUGUAACUGAAGGAGCGUCAUUAAGGACAGGUAGGUCGCGGAGCACAUGAGGAUCACCCAUGUCGG [#09 Same State - Arginine A]
4. AGCUCGCAUCCUCUAGCGUCAAAGACGCCUCGAGGACCGGUACGGCCGCCACUCGAGAUGAGGAUCACCCAUCUCAAAGCGAGCA [TrypAX 14 #SwitchBubble #AlternativeMS2 #MS2Late #CuTurnoff]
5. GCACCAGGUACGGAUACCAGCUGCCCGAGAUACAUGAGGAUCACCCAUGUGACCUGAUUUAGCCCUUGGCAGCUGUACCUGGUGC [SSThB NP+V+V2 #1]
6. AGCACAUGAGGAUCACCCAUGUGUCGGUACCGAGGACCGGUACGGCCGCCACUCGCAGGACAUGAGGAUCACCCAUGUGCCGCCG [SSTA DOUBLE!!! :-D #8]

1. 46.2
2. 40.5
3. 24.7
4. 71.6
5. 148
6. 14

Which measured apparent KD of MS2 coat protein value corresponds to GAUGAAGUAACUGAUACCAGUGUACUGACAUGAGGAUCACCCAUGUUGGGUUUUGUUGUACACCCUUGGCAGCAGAAUCUUUAUC [AstrosExyTheB#5] ?
33.8
